// Activity lookup, one value per entry
System: Triticum aestivum
Test: Herbicidal activity against Triticum aestivum (wheat) at 5000 g/ha after 2 weeks
Type: ADME, organism-based
Settings: in vivo, 336 h
Recorded metric: Activity (%)

Mol smiles	Endpoint value
CC[C@@H](C)NC(=O)c1nc(C)c(C)nc1C(=O)Nc1cc(F)ccc1C	50
CC[C@H](C)NC(=O)c1nc(C)c(C)nc1C(=O)Nc1cc(F)ccc1C	30
Cc1ccc(F)cc1NC(=O)c1nc(C)c(C)nc1C(=O)NC(C)C	30

====

// Activity lookup, one value per entry
Test system: Galium spurium
Assay: Herbicidal activity against Galium spurium var. echinospermon (Wally.) Hayek at 5000 g/ha after 2 weeks
Type: functional

Molecule	Target	Value qualifier	Activity [%]
CCCCCNC(=O)c1nc(C)c(C)nc1C(=O)Nc1cc(F)ccc1C	Galium spurium	<	10
CCCCCNC(=O)c1nc(C)c(C)nc1C(=O)Nc1cc(Cl)ccc1C	Galium spurium	<	10
CNC(=O)c1nc(C)c(C)nc1C(=O)Nc1cc(F)ccc1C	Galium spurium	<	10
Cc1ccc(Cl)cc1NC(=O)c1nc(C)c(C)nc1C(=O)NCCC(C)C	Galium spurium	=	10
CCNC(=O)c1nc(C)c(C)nc1C(=O)Nc1cc(Cl)ccc1C	Galium spurium	=	30
CCCNC(=O)c1nc(C)c(C)nc1C(=O)Nc1cc(F)ccc1C	Galium spurium	=	95
CCC(C)NC(=O)c1nc(C)c(C)nc1C(=O)Nc1cc(F)ccc1C (racemic)	Galium spurium	=	95
Cc1ccc(Cl)cc1NC(=O)c1nc(C)c(C)nc1C(=O)NCC(C)C	Galium spurium	=	95
CC[C@H](C)NC(=O)c1nc(C)c(C)nc1C(=O)Nc1cc(Cl)ccc1C	Galium spurium	=	50
CC[C@H](C)NC(=O)c1nc(C)c(C)nc1C(=O)Nc1cc(F)ccc1C	Galium spurium	=	95
Cc1ccc(F)cc1NC(=O)c1nc(C)c(C)nc1C(=O)NCC(C)C	Galium spurium	=	30
CCCCNC(=O)c1nc(C)c(C)nc1C(=O)Nc1cc(Cl)ccc1C	Galium spurium	=	30
CNC(=O)c1nc(C)c(C)nc1C(=O)Nc1cc(Cl)ccc1C	Galium spurium	=	10
Cc1ccc(F)cc1NC(=O)c1nc(C)c(C)nc1C(=O)NC(C)(C)C	Galium spurium	=	10
CCNC(=O)c1nc(C)c(C)nc1C(=O)Nc1cc(F)ccc1C	Galium spurium	<	10
Cc1ccc(Cl)cc1NC(=O)c1nc(C)c(C)nc1C(=O)NC(C)C	Galium spurium	=	95
Cc1ccc(F)cc1NC(=O)c1nc(C)c(C)nc1C(=O)NCCC(C)C	Galium spurium	<	10
CCCCNC(=O)c1nc(C)c(C)nc1C(=O)Nc1cc(F)ccc1C	Galium spurium	=	30

====

Tested on: Echinochloa crus-galli
Experiment: Herbicidal activity against Echinochloa crus-galli (barnyard grass) at 500 g/ha after 2 weeks
Format: functional
// Activity lookup, one value per entry

Mol smiles	Target	Activity
Cc1ccc(Cl)cc1NC(=O)c1nc(C)c(C)nc1C(=O)NC(C)C	Echinochloa crus-galli	<10%
CCCNC(=O)c1nc(C)c(C)nc1C(=O)Nc1cc(Cl)ccc1C	Echinochloa crus-galli	<10%
CC[C@H](C)NC(=O)c1nc(C)c(C)nc1C(=O)Nc1cc(F)ccc1C	Echinochloa crus-galli	<10%

====

System: Avena fatua
Test: Herbicidal activity against Avena fatua at 5000 g/ha after 2 weeks
Type: functional
// Activity lookup, one value per entry
Recorded metric: Activity (%)

Compound	Target	Value qualifier	Endpoint value
Cc1ccc(Cl)cc1NC(=O)c1nc(C)c(C)nc1C(=O)NC(C)(C)C	Avena fatua	<	10
CC[C@H](C)NC(=O)c1nc(C)c(C)nc1C(=O)Nc1cc(F)ccc1C	Avena fatua	=	50
CCCCNC(=O)c1nc(C)c(C)nc1C(=O)Nc1cc(Cl)ccc1C	Avena fatua	<	10
CCC(C)NC(=O)c1nc(C)c(C)nc1C(=O)Nc1cc(F)ccc1C (racemic)	Avena fatua	=	30
Cc1ccc(F)cc1NC(=O)c1nc(C)c(C)nc1C(=O)NC(C)(C)C	Avena fatua	=	95
CNC(=O)c1nc(C)c(C)nc1C(=O)Nc1cc(F)ccc1C	Avena fatua	<	10
Cc1ccc(Cl)cc1NC(=O)c1nc(C)c(C)nc1C(=O)NCC(C)C	Avena fatua	=	95
Cc1ccc(Cl)cc1NC(=O)c1nc(C)c(C)nc1C(=O)NCCC(C)C	Avena fatua	=	30
